# Tested on: CAKI-1 renal
# measurement_notes: NCI-60 one-dose screen, 48 h (100 = growth as untreated, 0 = no growth, -100 = all killed)
# settings: 10 µM unless noted
This is part of a sample that, as a whole, favours compounds with a hit. Of some 83,000 tested, about 20% had one in any assay.
Kindly return TRUE if reported growth is no lower than 80%; return FALSE if it is lower.

Below, 9 compounds whose answers are already recorded.
| structure | test_target | group |
| --- | --- | --- |
| O=C(/C=C/c1ccc(Br)cc1)c1ccc(-n2cc(CN3CCN(c4cc5c(cc4F)c(=O)c(C(=O)O)cn5C4CC4)CC3)nn2)cc1 | CAKI-1 renal | FALSE |
| Cn1cc(-c2nn3cc(-c4ccccc4)nc3s2)c2ccccc21 | CAKI-1 renal | FALSE |
| CCOc1ccc(/C=N\N=C\c2ccc(OCC)cc2)cc1 | CAKI-1 renal | FALSE |
| COc1ccc(-c2ccc(=O)oc2C#Cc2cc(OC)c(OC)c(OC)c2)cc1O | CAKI-1 renal | FALSE |
| COc1ccc2nc(SCC(=O)Nc3ccccc3C)[nH]c2c1 | CAKI-1 renal | TRUE |
| COc1ccc(C2=Nc3c/c(=C\c4c(O)[nH]c5cc(Cl)ccc45)ccc3=N2)cc1 | CAKI-1 renal | FALSE |
| Nc1nc(C(=O)N/N=C/c2ccc(N3CCOCC3)cc2)nn1-c1ccc(S(N)(=O)=O)cc1 | CAKI-1 renal | TRUE |
| COc1cc(Nc2c3ccc(Cl)cc3nc3ccc(OC)cc23)c2ncccc2c1 | CAKI-1 renal | FALSE |
| COc1ccc2c(c1)c(-c1cc(-c3cn(C)c4ccc(OC)cc34)on1)cn2C | CAKI-1 renal | TRUE |

Consider the record given below.
Decide: is the reported value of growth for Brc1ccc(-c2cnc3nonc3n2)cc1 equal to or greater than 80%? FALSE

----------
# Tested on: SR leukemia
# measurement_notes: NCI-60 one-dose screen, 48 h
# settings: 10 µM unless noted
This is part of a sample that, as a whole, favours compounds with a hit. Of some 83,000 tested, about 20% had one in any assay. The source made the active and inactive calls. Rule for the calls: active = growth percent below 10; inactive = the rest.
Bench note: report the call from yes (active), no (inactive)

Completed entries (count: 2):
| molecule | test_target | group |
| --- | --- | --- |
| COc1ccc(Cn2cc(C(=O)N=Nc3c(O)[nH]c4c(Cl)cccc34)nn2)cc1 | SR leukemia | no |
| COc1ccc2cc(-c3ccc(-c4ccc(C(=N)N)s4)s3)ccc2c1 | SR leukemia | yes |

Please indicate how the test categorized COc1ccc(NC(=O)c2sc3nc4c(cc3c2N)CCCC4)cc1 . yes

Moving on to the next molecule: CCCCCSB(SCCCCC)c1ccccc1 no

Cool, now N#Cc1c(-c2ccccc2)c(C#N)c2c(C#N)c(N)nn2c1N yes

// next record COc1cc2ncnc(Nc3ccc(F)c(Cl)c3)c2cc1OCC(=O)N1CCN(c2ccc(F)cc2)CC1 no

----------
# Test system: IGROV1 ovarian
# measurement_notes: NCI-60 one-dose screen, 48 h
# settings: 10 µM unless noted
Compounds without any hit were thinned out: in the full panel of roughly 83,000, 20% have a hit. Calls of active or inactive are those of the source. Rule for the calls: active = growth percent below 10; inactive = the rest.
Entry note: the call must match one of yes = active, no = inactive

Use these answered entries as a reference point.
| molecule | test_target | group |
| --- | --- | --- |
| COC(=O)C1=C(C)NC(C)=C(C(=O)OCC(C)C)C1c1ccccc1[N+](=O)[O-] (centres undefined) | IGROV1 ovarian | no |
| CCCCCCCCn1ccc2cc(NC(=O)Cn3cc(CN4CCCCCC4)nn3)ccc21 | IGROV1 ovarian | no |
| Cc1ccc(S(=O)(=O)n2cc(C3C(Cl)C(=O)N3c3ccc(N4CCOCC4=O)cc3)c3ccccc32)cc1 (centres undefined) | IGROV1 ovarian | no |
| CCCCNC1=C(OCC)C(=O)c2ccccc2C1=O | IGROV1 ovarian | no |

// return assay outcome for CN(C)c1ccc(-c2cc(-c3ccc(Nc4nc(Nc5ccc(Cl)cc5)nc(Nc5ccc(Cl)cc5)n4)cc3)nc(N)c2C#N)cc1 no

Same question for O=C1NC(=Nc2ccc(O)cc2)S/C1=C\c1cccs1 please. no

Also check C=C(C)[C@@H]1CC[C@]2(CO)CC[C@]3(C)[C@H](CC[C@@H]4[C@@]5(C)CCC(NCCc6ccc(O)cc6)C(C)(C)[C@@H]5CC[C@]43C)[C@@H]12 (some centres undefined) yes

What about Cn1ncc2ccc(-c3nc(-c4ccccc4)[nH]c3-c3n[nH]c(=O)n3C3CC3)cc21 ? no

Now try N#C/C(=C\c1ccc(Cl)cc1Cl)C(=O)Nc1ncc(Cc2ccc(Cl)c(Cl)c2)s1 . no

----------
# Test system: SK-MEL-28 melanoma
# measurement_notes: NCI-60 one-dose screen, 48 h (100 = growth as untreated, 0 = no growth, -100 = all killed)
# settings: 10 µM unless noted
This is part of a sample that, as a whole, favours compounds with a hit. Of some 83,000 tested, about 20% had one in any assay.
assay_endpoint: growth (%)
Report the value in % with no unit label.

Use the examples below as a reference point.
| compound | growth / % |
| --- | --- |
| COc1ccc(-c2ccc(-c3ccc(C(=N)N)cn3)s2)cc1 | 109 |
| CCNCc1ccc(O)c2ncccc12 | 65.6 |
| O=c1[nH]c(-c2ccc(Cl)cc2)cn1-c1ccc(-n2cc(-c3ccc(Cl)cc3)[nH]c2=O)cc1 | 101 |
| COc1ccc(C2=CN3CC=CCC3CC2=O)cc1 (configuration not stated) | 112 |
| Cn1cc(-c2ccc3cc(-c4ccc(CC(=O)Nc5cc(C(C)(C)C)on5)cc4)cnc3c2)cn1 | 29.1 |

Query: growth; subject: Cn1cc(-c2nonc2-c2c[nH]c3ccc(F)cc23)c2cc(Br)ccc21 73.2

----------
# Tested on: HT29 colon
# measurement_notes: NCI-60 one-dose screen, 48 h (100 = growth as untreated, 0 = no growth, -100 = all killed)
# settings: 10 µM unless noted
This is part of a sample that, as a whole, favours compounds with a hit. Of some 83,000 tested, about 20% had one in any assay.
assay_endpoint: growth (%)
Quick reminder: number only, in %, skip the unit.

# annotated cases, reported growth shown
| compound | growth / % |
| --- | --- |
| O=C1Nc2ccc(F)cc2/C1=C\c1nc(-c2ccccc2F)n2ccccc12 | 13.8 |
| CCCCc1oc2ccccc2c1C(=O)c1ccc(O)cc1 | 103 |
| COc1ccc2c(c1)c(-c1cc(-c3cn(C)c4ccc(OC)cc34)on1)cn2C | 97.3 |
| COC(=O)Cc1nc(C#N)c(N(C)C)o1 | 106 |
| CC(C)[C@@]12C[C@@H](OC(=O)COC(=O)c3ccccc3)[C@@](C)(O1)[C@@H]1CC[C@@H](C)[C@H]1[C@@H]2OC(=O)/C=C/c1ccccc1 | 89.9 |

Given the entry COc1ccc(Cn2cc(C(=O)N=Nc3c(O)[nH]c4c(Cl)cccc34)nn2)cc1 , report its measured growth. 97

Another: COCC[C@H]1CCC/C=C/[C@@H]2C[C@H](O)C[C@H]2[C@H](O)/C=C/C(=O)O1 -13.8

Another compound to check: CN1CCN(Cc2ccc(NC(=O)c3cncc(C#Cc4cncc5[nH]ncc45)c3)cc2C(F)(F)F)CC1 11.1

Next up: COc1ccc2c(O)c(/C=C3\N=Nc4ccccc43)oc2c1C[C@H]1CCNC[C@H]1F 19.3

What do we get for CCOC(=O)c1c(-c2ccc(Cl)cc2)c(C#N)c2c(C#N)c(N)nn2c1N ? 49.7

Then what about the compound CCN(CC)c1ccc(/C=C\c2cc(C)c3cc(C)ccc3n2)cc1 ? -17.9

Another compound: O=C(Cn1nnc2ccccc21)Nc1ccc(-c2nc3ccccc3s2)cc1 101

Item: CCn1cc(C2=C(c3cn(C)c4ncccc34)C(=O)NC2=O)c2cccnc21 72.4

Cool, now NNC(=S)N/N=C/c1ccccn1 36

What would you report for Cc1cccc(NC(=O)CSc2nc3ccc([N+](=O)[O-])cc3[nH]2)c1 ? 90.4

Further, for C#CC#CC#CC#CC#CC#CC#CC#CCC1OCC(COC(=O)O[C@@H](C(=O)O[C@H]2C[C@@]3(O)[C@@H](OC(=O)c4ccccc4)[C@@H]4[C@]5(OC(C)=O)CO[C@@H]5C[C@H](O)[C@@]4(C)C(=O)[C@H](OC(C)=O)C(=C2C)C3(C)C)[C@@H](NC(=O)c2ccccc2)c2ccccc2)O1 (some centres not stated) ? 5.02

Let us now turn to CCN(CC)CCOc1nc2c3ccc(Cl)cc3nn2c2ccccc12 15.2

Again, but for OC(c1ccccc1)(c1ccccc1)c1ccccc1-c1ccccc1 73.4
